System: Caco-2
Test: cell viability relative to DMSO; higher = less toxic
Conditions: 72 h; 10 nM
experimental-endpoint: cell viability (%)
Write the value in % as a bare number.

Solved cases below.
compound	experimental-value
CC(C(=O)O)c1ccc(N2Cc3ccccc3C2=O)cc1 (stereo not drawn)	97.8
COc1cc(C(=O)NCc2ccc(OCCN(C)C)cc2)cc(OC)c1OC [trimethobenzamide]	94.3
CCCCCCCCCCCCCCOC(=O)c1cccnc1 [myristyl-nicotinate]	103
COc1ccc(/C=C2\CCCN=C2c2cccnc2)c(OC)c1	97.2

Let us move to another entry and its cell viability.
Entry CCOC(N)=O has what cell viability? 97.3

###

System: U2OS
Test: drug sensitivity score (DSS) for viability; higher = more toxic; extreme values may be limits of the assay
Conditions: 72 h
experimental-endpoint: drug sensitivity score
Answer with a bare number; do not write a unit.

Previously resolved entries follow.
>>> print(df.to_string())
                                   molecule  experimental_value
0  CC(=O)OCC(=O)[C@@]1(O)[C@@H](C)C[C@H]2[C@@H]3CCC4=CC(=O)C=C[C@]4(C)[C@@]3(F)[C@@H](O)C[C@@]21C [betamethasone-acetate]                   0
1  C#C[C@]1(O)CC[C@H]2[C@@H]3CCC4=CC(=O)CCC4=C3C=C[C@@]21CC                   0
2                         CC(C)(N)Cc1ccccc1                   0
3                        O=c1oc2cc(O)ccc2s1                   0
4  COc1ccc(C2(O)CCC(N3CC[C@@H](NC(=O)CNC(=O)c4cccc(C(F)(F)F)c4)C3)CC2)cn1 (stereo not given in full)                   0

Entry COc1ccccc1-c1c[nH]c2ncc(-c3cncc(C(=O)N(C)C)c3)cc12 has what drug sensitivity score? 0

Which drug sensitivity score value belongs to O=C1C(=O)N(Cc2ccc(Cl)c(Cl)c2)c2ccccc21 ? 4.7

Returns the measured drug sensitivity score for the input molecule. Input: Cc1cc(C(=O)NOCCO)c(Nc2ccc(I)cc2F)n(C)c1=O 13.3

Consider the molecule shown here: Nc1nc(Cl)nc2c1ncn2[C@@H]1O[C@H](CO)[C@@H](O)[C@@H]1F What is its recorded drug sensitivity score? 4

Field request: drug sensitivity score | item: O=C(C[S+]([O-])Cc1ccco1)NC/C=C\COc1cc(CN2CCCCC2)ccn1 (stereo not given) 0

Report drug sensitivity score for C[C@H](NC(=O)/C(C#N)=C/c1cccc(Br)n1)c1ccccc1 please. 5.7

Given CC1Cc2ccccc2N1NC(=O)c1ccc(Cl)c(S(N)(=O)=O)c1 (stereo not given) [indapamide] , state its recorded drug sensitivity score. 0

# lookup: drug sensitivity score of CN(Cc1cccc(-c2ccccc2)c1)C(=O)Oc1ccc(-c2ccc(C(N)=O)cc2)cc1 0

Need drug sensitivity score of CC(C)(C)c1ccc(S(=O)(=O)NCc2ccc(C(=O)Nc3cccnc3)cc2)cc1 , thanks. 13.6

Which drug sensitivity score reading was recorded for the molecule CCCc1c2oc(C(=O)O)cc(=O)c2cc2c(=O)cc(C(=O)O)n(CC)c12 ? 0

Look up drug sensitivity score: O=C(/C=C/c1ccc(O)c2c1[C@H](C(=O)O[C@H](Cc1ccc(O)c(O)c1)C(=O)O)[C@@H](c1ccc(O)c(O)c1)O2)O[C@H](Cc1ccc(O)c(O)c1)C(=O)O 0

Looking for the measured drug sensitivity score of Oc1c(Cl)cc(Cl)c2cccnc12 , can you help? 0

###

Tested on: Calu-3
Assay: relative viability EC50 (midpoint between 100% and the lowest measured viability); higher = less toxic
Details: 72 h
Catalogue of relative viability EC50 readings, one per entry.

                                   compound    experimental_endpoint  experimental_value
0  Cc1cc2sc(NC(=O)Cc3ccccc3)nc2cc1Cl [LH846]  relative viability EC50             > 10 µM
1  Cc1ccc(-c2csc(NC(=O)c3ccccc3)n2)c(C)c1 [INH1]  relative viability EC50             > 10 µM

Name the reported relative viability EC50 value associated with the compound CC(=O)NC[C@H]1CN(c2ccc(-c3ccc(CNCc4cnn[nH]4)cc3)c(F)c2)C(=O)O1 [radezolid] > 10 µM

###

Reported cell viability values for the following compounds.
System: U2OS
Test: cell viability relative to DMSO; higher = less toxic
Conditions: 72 h; 1000 nM
Express the result in % but write the number alone.

>>> print(df.to_string())
                                   compound  experimental_endpoint  experimental_value
0  Cc1[nH]c(=O)c(C#N)cc1-c1ccc2nccn2c1 [olprinone]         cell viability                99.9
1  CN1C2CCC1CC(OC(c1ccccc1)c1ccc(Cl)cc1)C2 (centres undefined) [3-CPMT]         cell viability                97.1
2  COc1ccc(-c2cc(=O)c3c(O)cc(O)cc3o2)cc1O [diosmetin]         cell viability                96.2

Reported cell viability for CN(C)CCN(C)CCc1ccc(Cl)c(Cl)c1 [BD-1047] : what is it? 97.5

###

Reported cell viability values for a set of compounds
Tested on: Calu-3
Experiment: cell viability relative to DMSO; higher = less toxic
Settings: 72 h; 10000 nM
Reply numerically in %, unit not repeated.

>>> print(df.to_string())
                                   compound  display_unit  experimental_value
0  Cc1nc(-c2cn3c(n2)-c2ccc(-c4cnn(C(C)(C)C(N)=O)c4)cc2OCC3)n(C(C)C)n1 [taselisib]             %                  24

Returns the measured cell viability for the input compound. Input: N[C@H](C(=O)O)c1cc(O)no1 [ibotenic-acid] 94

Recorded cell viability of COc1ccc(-c2cc(=O)c3c(O)cc(O)cc3o2)cc1O [diosmetin] , please. 78.3

Param item = CC(C)Cc1ccc([C@@H](C)C(=O)NCCO)cc1 (racemic) [mabuprofen] ; retrieve measured cell viability. 117

For the compound shown here, c1ccc(Cn2c(N3CCNCC3)nc3ccccc32)cc1 [lerisetron] , give the reported cell viability. 96.3

Endpoint output: cell viability of CC(C)OC(=O)OCOP(=O)(CO[C@H](C)Cn1cnc2c(N)ncnc21)OCOC(=O)OC(C)C [tenofovir-disoproxil] . Value? 80.8

Reported cell viability, compound Cc1cc2c(OCC(CNC(C)(C)C)OC(=O)c3ccccc3)cccc2[nH]1 (centres undefined) [bopindolol] : ____ 92

What cell viability value was documented for this compound, CCCCN1CCC(CNC(=O)c2c3n(c4ccccc24)CCCO3)CC1 [piboserod] ? 83

Recorded cell viability for O=C(O)c1cc(N2N=C(C(F)(F)F)/C(=C/c3ccc(-c4ccccc4)o3)C2=O)ccc1Cl [EN460] , please? 100

###

Test system: Calu-3
Experiment: cell viability relative to DMSO; higher = less toxic
Details: 72 h; 10000 nM
experimental-endpoint: cell viability (%)
Give just the numeric value; % need not be written.

In [3]: df
Out[3]:
                                 molecule  display_unit  experimental_value
0  Cc1c(C(=O)NC2CCCCC2)sc2nc3ccc(N)cc3n12             %                 103

Query (molecule): O=C(C[S+]([O-])Cc1ccco1)NC/C=C\COc1cc(CN2CCCCC2)ccn1 (centres undefined) ; field requested: cell viability 92.3

// query cell viability value for entry O=C(Nc1ccc(Cl)cc1)Nc1ccc(Cl)c(Cl)c1 100

Fill blank: measured cell viability of the molecule CCC[C@@H]1CC2=CC(=O)CC[C@]2(C)[C@H]2CC[C@@]3(C)[C@@H](CC[C@@]3(O)CCC(=O)O)[C@H]12 is ____. 102

Record request: cell viability value, item Cc1cc(C)c2c(N)c(C(=O)NCc3ccc(Cl)cc3)sc2n1 96.3

Can you look up the measured cell viability of C/C(=N\NC(=S)N1CCC1)c1ccccn1 for me? 25.4

Quick one: cell viability for Cc1ncc(C[n+]2csc(CCO)c2C)c(N)n1 ? 105

Entry CCCCOc1ccc(-c2cncc(C(=O)NCc3cccnc3N3CCOCC3)c2)cc1Cl has what cell viability? 90.4

// query cell viability value for entry CC(=O)O[C@H]1CC[C@@]2(C)C(=CC[C@@H]3[C@@H]2CC[C@]2(C)C(c4cccnc4)=CC[C@@H]32)C1 [abiraterone-acetate] 107

###

cell viability values by entry
Tested on: Calu-3
Experiment: cell viability relative to DMSO; higher = less toxic
Conditions: 72 h; 100 nM
Answer format: numeric, % implied, no suffix.

Use these answered entries as a reference point.
compound	display-unit	experimental-value
CCCCOc1cc(C(=O)OCCN(CC)CC)ccc1N	%	110
COC(=O)Nc1nc2cc(Sc3ccccc3)ccc2[nH]1	%	97.7
O=C(Cc1ccc(-c2ccccc2)cc1)Nc1ccccn1 [difenpiramide]	%	96.9
O=c1c2ccccc2nc2n1CCc1c-2[nH]c2ccccc12	%	98.8
CC1(C)[C@@H](O)CC[C@]2(C)[C@H]3C(=O)C=C4[C@@H]5C[C@@](C)(C(=O)O)CC[C@]5(C)CC[C@@]4(C)[C@]3(C)CC[C@@H]12	%	98.6
Cc1cc2sc(NC(=O)Cc3ccccc3)nc2cc1Cl	%	110
Cc1ccc(-c2csc(NC(=O)c3ccccc3)n2)c(C)c1	%	101
CC(C)(C)c1cc(O)c(C(C)(C)C)cc1O	%	93.1
C[C@@H](N[C@H]1CCCC[C@@H]1NC(=O)c1ccc(Cl)cc1)c1cccc2ccccc12	%	95.9
CC(=O)O[C@H]1CC[C@@]2(C)C(=CC[C@@H]3[C@@H]2CC[C@]2(C)C(c4cccnc4)=CC[C@@H]32)C1 [abiraterone-acetate]	%	96.6

Could you share what cell viability was measured for CCCCNc1nc(N)c2[nH]c(=O)n(Cc3ccc(OCCN(C)C)nc3)c2n1 , tested on Calu-3? 95.2

Lab note: need cell viability for Nc1nc(NC[C@H]2CC[C@H](CNS(=O)(=O)c3cccc4ccccc34)CC2)nc2ccccc12 on Calu-3, anyone have it? 98.8

State its cell viability on Calu-3: Nc1nc(Cl)nc2c1ncn2[C@@H]1O[C@H](CO)[C@@H](O)[C@@H]1F 96.2

Calu-3 / cell viability / CC(C(=O)O)c1ccc(N2Cc3ccccc3C2=O)cc1 (configuration not stated) : value? 97.1

Item CC(=O)OCC1=C(C(=O)O)N2C(=O)[C@@H](NC(=O)CS/C(=N/C(C)C)NC(C)C)[C@H]2SC1 with Calu-3 - cell viability? 107

Give the reported cell viability for C[S+]([O-])c1ccc(-c2nc(-c3ccc(F)cc3)c(-c3ccncc3)[nH]2)cc1 (configuration not stated) (system: Calu-3). 98.2

Kindly state the measured cell viability obtained for CC[C@H]1OC(=O)[C@H](C)[C@@H](O[C@H]2C[C@@](C)(OC)[C@@H](O)[C@H](C)O2)[C@H](C)[C@@H](O[C@@H]2O[C@H](C)C[C@H](N(C)C)[C@H]2O)[C@](C)(O)C[C@@H](C)CN(C)[C@H](C)[C@@H](O)[C@]1(C)O with Calu-3. 104

Query the reported cell viability for Calu-3; item: CCCc1nn(C)c2c(=O)[nH]c(-c3cc(S(=O)(=O)N4CCN(C)CC4)ccc3OCC)nc12 105

Find the measured cell viability: item C[C@H]1C[C@@H]2[C@H]([C@@H](O)C[C@@]3(C)[C@H]2CC[C@]3(O)C(=O)COC(=O)CCC(=O)O)[C@@]2(C)C=CC(=O)C=C12 [methylprednisolone-sodium-succinate] , target or system Calu-3. 88.8
